Record form. Attribute: pre-steady-state target cleavage rate. Fill in for each entry.
system: EfPiwi piRISC loaded with L1MC piRNA (26 nt); assay: pre-steady-state target cleavage rate (min^-1); auxiliary factor: none (no Gtsf1); guide: L1MC piRNA 5'p-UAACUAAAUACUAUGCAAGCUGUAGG; higher = faster piRNA-guided slicing of the target

For the sequence UCCUGGAUGAGCUUGCAUAGUAGUUUAGUUA , give its measured pre-steady-state target cleavage rate value.
0.0124

For the sequence UCCUCCUACAGCUUGCAUAGAAUUUUCAAA , give its measured pre-steady-state target cleavage rate value.
< 0.0001

For the sequence UCCUGGAUCACGUUGCAUAGUAUUUAGAAA , give its measured pre-steady-state target cleavage rate value.
< 0.0001

For the sequence UCCUGGAUGUCGAAGCAUAGUUUUUAGAUA , give its measured pre-steady-state target cleavage rate value.
< 0.0001

For the sequence UCCUGGAUGUCGAAGCAUAGUAUAUACUUA , give its measured pre-steady-state target cleavage rate value.
< 0.0001

For the sequence UCCUGGAUGUCGAACGUAUCUAUUUAUUUA , give its measured pre-steady-state target cleavage rate value.
< 0.0001

For the sequence UCCUCCUACAGGAUGCAUAGUAUUUUCAAA , give its measured pre-steady-state target cleavage rate value.
< 0.0001

For the sequence UCCUGCUACAGCUUGCAUACAUAAAUCAAA [g12:g25:cont:t1A] , give its measured pre-steady-state target cleavage rate value.
< 0.0001

For the sequence UCCUGGAUCAGCUUCGUUAGUAUUUUCAAA , give its measured pre-steady-state target cleavage rate value.
< 0.0001

For the sequence UCCUGGAUGUCGAACGAUAGUAUUUGGUUA , give its measured pre-steady-state target cleavage rate value.
< 0.0001

For the sequence UCCUGGAUGAGCUUGGAUUGUAUUUAGUUA , give its measured pre-steady-state target cleavage rate value.
< 0.0001

For the sequence UCCUGGAUGUCGAAGGAUAGUAUUUUGUUA , give its measured pre-steady-state target cleavage rate value.
< 0.0001

For the sequence UCCUCGUACAGCUUGCAUAGAAUUUAGUUA , give its measured pre-steady-state target cleavage rate value.
0.00853

* * *

system: MILI (PIWIL2) piRISC loaded with L1MC piRNA (26 nt); assay: pre-steady-state target cleavage rate (min^-1); guide: L1MC piRNA 5'p-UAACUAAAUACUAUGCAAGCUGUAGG; higher = faster piRNA-guided slicing of the target; settings: auxiliary factor: 500 nM mouse GTSF1;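 note: 1 nM active piRISC with 0.1 nM target library at 33 °C single turnover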
Record form. Attribute: pre-steady-state target cleavage rate. Fill in for each entry.
Reply: number alone, nothing else.

Provide measured pre-steady-state target cleavage rate on MILI (PIWIL2) piRISC loaded with L1MC piRNA (26 nt) for UCCUGCUACAGCUAGCAUAGAAUUUAGUUA please.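 Note: 1 nM active piRISC with 0.1 nM target library at 33 °C single turnover.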
0.0821

Provide measured pre-steady-state target cleavage rate on MILI (PIWIL2) piRISC loaded with L1MC piRNA (26 nt) for UCCUGGAUGUCCUUGCAUUGUAUUUACUUA please.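 Note: 1 nM active piRISC with 0.1 nM target library at 33 °C single turnover.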
0.0534

Provide measured pre-steady-state target cleavage rate on MILI (PIWIL2) piRISC loaded with L1MC piRNA (26 nt) for UCCUGCAACAGCUUGCAUAGUAUUAAGUUA please.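 Note: 1 nM active piRISC with 0.1 nM target library at 33 °C single turnover.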
0.344

Provide measured pre-steady-state target cleavage rate on MILI (PIWIL2) piRISC loaded with L1MC piRNA (26 nt) for UCCUGGAACAGCUUGCUAAGUAUUUAGAAA please.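 Note: 1 nM active piRISC with 0.1 nM target library at 33 °C single turnover.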
0.0282

Provide measured pre-steady-state target cleavage rate on MILI (PIWIL2) piRISC loaded with L1MC piRNA (26 nt) for UCCUGGUACAGCUUGCAUAUGUAUUUAGUUA please.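 Note: 1 nM active piRISC with 0.1 nM target library at 33 °C single turnover.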
0.00566

Provide measured pre-steady-state target cleavage rate on MILI (PIWIL2) piRISC loaded with L1MC piRNA (26 nt) for UCCUGGAUGUGCUAUGCAUAGUAUUUAGUUA please.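 Note: 1 nM active piRISC with 0.1 nM target library at 33 °C single turnover.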
0.141

Provide measured pre-steady-state target cleavage rate on MILI (PIWIL2) piRISC loaded with L1MC piRNA (26 nt) for UCCUGGAACAGCUUGCAUAGUAUUUUCAAA please.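 Note: 1 nM active piRISC with 0.1 nM target library at 33 °C single turnover.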
0.0774

* * *

Record form. Attribute: pre-steady-state target cleavage rate. Fill in for each entry.
system: MILI (PIWIL2) piRISC loaded with L1MC piRNA (26 nt); assay: pre-steady-state target cleavage rate (min^-1); guide: L1MC piRNA 5'p-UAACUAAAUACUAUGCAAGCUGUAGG; MIWI and MILI are mouse PIWI proteins and EfPiwi is from a freshwater sponge; tags in brackets are library labels; higher = faster piRNA-guided slicing of the target; settings: auxiliary factor: 500 nM mouse GTSF1;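 note: 1 nM active piRISC with 0.1 nM target library at 33 °C single turnover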

Provide measured pre-steady-state target cleavage rate on MILI (PIWIL2) piRISC loaded with L1MC piRNA (26 nt) for UCCUGGAACAGCUUGCAGAGUAUUUAGUUA please.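 Note: 1 nM active piRISC with 0.1 nM target library at 33 °C single turnover.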
0.193

Provide measured pre-steady-state target cleavage rate on MILI (PIWIL2) piRISC loaded with L1MC piRNA (26 nt) for UCCUGGAUGUCGUUGCAAAGUAUAUAGUUA please.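 Note: 1 nM active piRISC with 0.1 nM target library at 33 °C single turnover.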
0.0166

Provide measured pre-steady-state target cleavage rate on MILI (PIWIL2) piRISC loaded with L1MC piRNA (26 nt) for UCCUGGAUCUGCUUGCAUAGUUUUUAGUUA please.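 Note: 1 nM active piRISC with 0.1 nM target library at 33 °C single turnover.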
0.0213

Provide measured pre-steady-state target cleavage rate on MILI (PIWIL2) piRISC loaded with L1MC piRNA (26 nt) for UCCUGCUACUCCUUGCAUAGUAUUUAGUUA please.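 Note: 1 nM active piRISC with 0.1 nM target library at 33 °C single turnover.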
0.262

Provide measured pre-steady-state target cleavage rate on MILI (PIWIL2) piRISC loaded with L1MC piRNA (26 nt) for UCCUGGAUCAAGCUUGCAUAGUAUUUAGUUA please.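 Note: 1 nM active piRISC with 0.1 nM target library at 33 °C single turnover.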
0.237

Provide measured pre-steady-state target cleavage rate on MILI (PIWIL2) piRISC loaded with L1MC piRNA (26 nt) for UCCUGGAUCAGCUUGCAAGUAUUUAGUUA please.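 Note: 1 nM active piRISC with 0.1 nM target library at 33 °C single turnover.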
0.0793

Provide measured pre-steady-state target cleavage rate on MILI (PIWIL2) piRISC loaded with L1MC piRNA (26 nt) for UCCUGGAUGAGCAUGCAAAGUAUUUAGUUA please.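 Note: 1 nM active piRISC with 0.1 nM target library at 33 °C single turnover.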
0.056

Provide measured pre-steady-state target cleavage rate on MILI (PIWIL2) piRISC loaded with L1MC piRNA (26 nt) for UCCUGCUACAGCUUGGAUAGUAAUUAGUUA please.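 Note: 1 nM active piRISC with 0.1 nM target library at 33 °C single turnover.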
0.204

Provide measured pre-steady-state target cleavage rate on MILI (PIWIL2) piRISC loaded with L1MC piRNA (26 nt) for UCCUGGAUGAGCUUGCAUUGUAAUUAGUUA please.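 Note: 1 nM active piRISC with 0.1 nM target library at 33 °C single turnover.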
0.0683

Provide measured pre-steady-state target cleavage rate on MILI (PIWIL2) piRISC loaded with L1MC piRNA (26 nt) for UCCUGGAUCAGCUUGGAUAGUAUAUAGUUA please.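 Note: 1 nM active piRISC with 0.1 nM target library at 33 °C single turnover.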
0.124

Provide measured pre-steady-state target cleavage rate on MILI (PIWIL2) piRISC loaded with L1MC piRNA (26 nt) for UCCUGGAUGUCGUUGCAUAGUAUUUAGUGUA please.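 Note: 1 nM active piRISC with 0.1 nM target library at 33 °C single turnover.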
0.17

Provide measured pre-steady-state target cleavage rate on MILI (PIWIL2) piRISC loaded with L1MC piRNA (26 nt) for UCCUGGUAGAGCUUGCAUAGUUUUUAGUUA please.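 Note: 1 nM active piRISC with 0.1 nM target library at 33 °C single turnover.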
0.0231

Provide measured pre-steady-state target cleavage rate on MILI (PIWIL2) piRISC loaded with L1MC piRNA (26 nt) for UCCUCCUACAGCUUGCAAAGUAUUUUGUUA please.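 Note: 1 nM active piRISC with 0.1 nM target library at 33 °C single turnover.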
0.0808

Provide measured pre-steady-state target cleavage rate on MILI (PIWIL2) piRISC loaded with L1MC piRNA (26 nt) for UCCUGGAUGUCCUUGCUAUGUAUUUAGUUA please.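 Note: 1 nM active piRISC with 0.1 nM target library at 33 °C single turnover.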
0.00552

Provide measured pre-steady-state target cleavage rate on MILI (PIWIL2) piRISC loaded with L1MC piRNA (26 nt) for UCCUGGAACAGCUUGGAUAGUAUAUAGUUA please.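 Note: 1 nM active piRISC with 0.1 nM target library at 33 °C single turnover.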
0.215

Provide measured pre-steady-state target cleavage rate on MILI (PIWIL2) piRISC loaded with L1MC piRNA (26 nt) for UCCUGCUACACGUUGCAUAGUAUUUUCAAA please.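 Note: 1 nM active piRISC with 0.1 nM target library at 33 °C single turnover.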
0.00757

Provide measured pre-steady-state target cleavage rate on MILI (PIWIL2) piRISC loaded with L1MC piRNA (26 nt) for UCCUCCUACAGCUUGCAUACUAUUUUCAAA please.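 Note: 1 nM active piRISC with 0.1 nM target library at 33 °C single turnover.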
0.0677

Provide measured pre-steady-state target cleavage rate on MILI (PIWIL2) piRISC loaded with L1MC piRNA (26 nt) for UCCUGGUACAGCAAGCAUAGUAUUUAGUUA please.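 Note: 1 nM active piRISC with 0.1 nM target library at 33 °C single turnover.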
0.232

Provide measured pre-steady-state target cleavage rate on MILI (PIWIL2) piRISC loaded with L1MC piRNA (26 nt) for UCCUGGAACAGCUUGCAUAGUAUUAUGAAA please.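 Note: 1 nM active piRISC with 0.1 nM target library at 33 °C single turnover.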
0.0563

Provide measured pre-steady-state target cleavage rate on MILI (PIWIL2) piRISC loaded with L1MC piRNA (26 nt) for UCCUGCUACAGCUUGCAAAGUAUUUAGAUA please.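 Note: 1 nM active piRISC with 0.1 nM target library at 33 °C single turnover.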
0.0895

Provide measured pre-steady-state target cleavage rate on MILI (PIWIL2) piRISC loaded with L1MC piRNA (26 nt) for UCCUGGAACAGCUUGCUAAGUAUUUAGUAA please.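 Note: 1 nM active piRISC with 0.1 nM target library at 33 °C single turnover.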
0.0296

Provide measured pre-steady-state target cleavage rate on MILI (PIWIL2) piRISC loaded with L1MC piRNA (26 nt) for UCCUCCUAAGCUUGCAUAGUAUUUAGUUA please.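 Note: 1 nM active piRISC with 0.1 nM target library at 33 °C single turnover.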
0.23

Provide measured pre-steady-state target cleavage rate on MILI (PIWIL2) piRISC loaded with L1MC piRNA (26 nt) for UCCUGGUACAGCUUGCAUCAGUAUUUAGUUA please.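 Note: 1 nM active piRISC with 0.1 nM target library at 33 °C single turnover.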
0.0101

Provide measured pre-steady-state target cleavage rate on MILI (PIWIL2) piRISC loaded with L1MC piRNA (26 nt) for UCCUGCUACAGCUAGCAUAGUAUUUAGAAA please.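 Note: 1 nM active piRISC with 0.1 nM target library at 33 °C single turnover.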
0.227

Provide measured pre-steady-state target cleavage rate on MILI (PIWIL2) piRISC loaded with L1MC piRNA (26 nt) for UCCUCCUACUGCAUGCAUAGUAUUUAGUUA please.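 Note: 1 nM active piRISC with 0.1 nM target library at 33 °C single turnover.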
0.252

Provide measured pre-steady-state target cleavage rate on MILI (PIWIL2) piRISC loaded with L1MC piRNA (26 nt) for UCCUGGAACAGCUUGCUAUGUAUUUAGUUA please.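 Note: 1 nM active piRISC with 0.1 nM target library at 33 °C single turnover.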
0.0569

Provide measured pre-steady-state target cleavage rate on MILI (PIWIL2) piRISC loaded with L1MC piRNA (26 nt) for UCCUGGAUCAGCUUGCAUAGCAUUUAGUUA please.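 Note: 1 nM active piRISC with 0.1 nM target library at 33 °C single turnover.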
0.08

Provide measured pre-steady-state target cleavage rate on MILI (PIWIL2) piRISC loaded with L1MC piRNA (26 nt) for UCCUGGAUGAGCUUGCAUAGUAUUUAAGUUA please.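 Note: 1 nM active piRISC with 0.1 nM target library at 33 °C single turnover.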
0.153

// provenance: the supplement of paper PMC10338343
